Measured log10 Ki (D(3) dopamine receptor (Homo sapiens))
quantity measured: log10 Ki (log10 of the value in nM)

{"smiles notation": "CS(=O)(=O)Oc1ccc2c(c1)CCN(CC[C@H]1CC[C@H](NC(=O)/C=C/c3ccc(F)cc3)CC1)CC2", "log10 Ki": -0.10}
{"smiles notation": "CS(=O)(=O)Oc1ccc2c(c1)CCN(CC[C@H]1CC[C@H](NC(=O)c3cccc4ccccc34)CC1)CC2", "log10 Ki": 0.40}
{"smiles notation": "CS(=O)(=O)c1ccc2c(c1)CCN(CC[C@H]1CC[C@H](NC(=O)/C=C/c3ccc(C#N)cc3)CC1)CC2", "log10 Ki": 0.30}
{"smiles notation": "Cc1cnc(-c2cccc(C(=O)N[C@H]3CC[C@H](CCN4CCc5ccc(OS(C)(=O)=O)cc5CC4)CC3)c2)o1", "log10 Ki": 0.50}
{"smiles notation": "Cc1cc(C(=O)N[C@H]2CC[C@H](CCN3CCc4ccc(OS(C)(=O)=O)cc4CC3)CC2)c2ccccc2n1", "log10 Ki": 1.30}
{"smiles notation": "Cc1ncc(-c2cccc(C(=O)N[C@H]3CC[C@H](CCN4CCc5ccc(S(C)(=O)=O)cc5CC4)CC3)c2)o1", "log10 Ki": 0.80}
{"smiles notation": "Cc1cc(-c2cccc(C(=O)N[C@H]3CC[C@H](CCN4CCc5ccc(S(C)(=O)=O)cc5CC4)CC3)c2)on1", "log10 Ki": 0.60}
{"smiles notation": "COc1ccc(/C=C/C(=O)N[C@H]2CC[C@H](CCN3CCc4ccc(OS(C)(=O)=O)cc4CC3)CC2)cc1", "log10 Ki": 0.00}

###

Measured pKi accompanies every entry in the list below.
- measured on: D(2) dopamine receptor (Homo sapiens, UniProt P14416)
- Sequence (P14416 whole entry): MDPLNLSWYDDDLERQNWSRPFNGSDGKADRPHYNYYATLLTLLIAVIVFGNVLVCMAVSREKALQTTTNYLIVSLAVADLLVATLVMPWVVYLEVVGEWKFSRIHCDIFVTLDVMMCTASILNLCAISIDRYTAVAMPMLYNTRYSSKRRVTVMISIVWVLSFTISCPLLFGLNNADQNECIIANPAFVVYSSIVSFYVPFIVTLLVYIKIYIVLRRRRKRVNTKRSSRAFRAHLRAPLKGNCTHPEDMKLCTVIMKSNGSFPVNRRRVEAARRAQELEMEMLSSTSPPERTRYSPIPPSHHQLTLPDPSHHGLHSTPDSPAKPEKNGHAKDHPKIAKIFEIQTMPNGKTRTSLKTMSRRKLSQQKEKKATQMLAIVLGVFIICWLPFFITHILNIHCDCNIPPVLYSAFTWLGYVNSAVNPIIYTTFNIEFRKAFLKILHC
- experimental protocol: Binding affinity against human Dopamine receptor D2 expressed in CHO cells by using [125I]iodosulpiride as radioligand
pKi: −log10 of the molar value.

{"smiles notation": "Cc1cc(-c2cccc(C(=O)N[C@H]3CC[C@H](CCN4CCc5ccc(OS(C)(=O)=O)cc5CC4)CC3)c2)on1", "measured on": "D(2) dopamine receptor (Homo sapiens, UniProt P14416)", "pKi": 6.80}
{"smiles notation": "Cc1ccc2c(C(=O)N[C@H]3CC[C@H](CCN4CCc5ccc(S(C)(=O)=O)cc5CC4)CC3)cccc2n1", "measured on": "D(2) dopamine receptor (Homo sapiens, UniProt P14416)", "pKi": 6.50}
{"smiles notation": "CS(=O)(=O)c1ccc2c(c1)CCN(CC[C@H]1CC[C@H](NC(=O)/C=C/c3ccc(F)cc3)CC1)CC2", "measured on": "D(2) dopamine receptor (Homo sapiens, UniProt P14416)", "pKi": 7.10}
{"smiles notation": "Cc1coc(-c2cccc(C(=O)N[C@H]3CC[C@H](CCN4CCc5ccc(OS(C)(=O)=O)cc5CC4)CC3)c2)n1", "measured on": "D(2) dopamine receptor (Homo sapiens, UniProt P14416)", "pKi": 6.70}
{"smiles notation": "CS(=O)(=O)Oc1ccc2c(c1)CCN(CC[C@H]1CC[C@H](NC(=O)/C=C/c3ccc(F)cc3)CC1)CC2", "measured on": "D(2) dopamine receptor (Homo sapiens, UniProt P14416)", "pKi": 7.20}
{"smiles notation": "CS(=O)(=O)c1ccc2c(c1)CCN(CC[C@H]1CC[C@H](NC(=O)/C=C/c3cccc(C#N)c3)CC1)CC2", "measured on": "D(2) dopamine receptor (Homo sapiens, UniProt P14416)", "pKi": 6.80}
{"smiles notation": "COc1cccc(/C=C/C(=O)N[C@H]2CC[C@H](CCN3CCc4ccc(OS(C)(=O)=O)cc4CC3)CC2)c1", "measured on": "D(2) dopamine receptor (Homo sapiens, UniProt P14416)", "pKi": 7.20}
{"smiles notation": "CS(=O)(=O)c1ccc2c(c1)CCN(CC[C@H]1CC[C@H](NC(=O)/C=C/c3ccccc3F)CC1)CC2", "measured on": "D(2) dopamine receptor (Homo sapiens, UniProt P14416)", "pKi": 6.90}
{"smiles notation": "CS(=O)(=O)Oc1ccc2c(c1)CCN(CC[C@H]1CC[C@H](NC(=O)c3cccc(-c4ncccn4)c3)CC1)CC2", "measured on": "D(2) dopamine receptor (Homo sapiens, UniProt P14416)", "pKi": 6.50}
{"smiles notation": "Cc1cnc(-c2cccc(C(=O)N[C@H]3CC[C@H](CCN4CCc5ccc(OS(C)(=O)=O)cc5CC4)CC3)c2)o1", "measured on": "D(2) dopamine receptor (Homo sapiens, UniProt P14416)", "pKi": 6.50}
{"smiles notation": "Cc1ccc2c(C(=O)N[C@H]3CC[C@H](CCN4CCc5ccc(S(C)(=O)=O)cc5CC4)CC3)ccc(F)c2n1", "measured on": "D(2) dopamine receptor (Homo sapiens, UniProt P14416)", "pKi": 6.10}
{"smiles notation": "Cn1nccc1-c1cccc(C(=O)N[C@H]2CC[C@H](CCN3CCc4ccc(S(C)(=O)=O)cc4CC3)CC2)c1", "measured on": "D(2) dopamine receptor (Homo sapiens, UniProt P14416)", "pKi": 6.30}
{"smiles notation": "CS(=O)(=O)c1ccc2c(c1)CCN(CC[C@H]1CC[C@H](NC(=O)/C=C/c3ccccc3C#N)CC1)CC2", "measured on": "D(2) dopamine receptor (Homo sapiens, UniProt P14416)", "pKi": 6.80}
{"smiles notation": "Cc1cnc(-c2cccc(C(=O)N[C@H]3CC[C@H](CCN4CCc5ccc(S(C)(=O)=O)cc5CC4)CC3)c2)o1", "measured on": "D(2) dopamine receptor (Homo sapiens, UniProt P14416)", "pKi": 6.20}
{"smiles notation": "COc1ccccc1/C=C/C(=O)N[C@H]1CC[C@H](CCN2CCc3ccc(OS(C)(=O)=O)cc3CC2)CC1", "measured on": "D(2) dopamine receptor (Homo sapiens, UniProt P14416)", "pKi": 7.00}
{"smiles notation": "Cc1ncc(-c2cccc(C(=O)N[C@H]3CC[C@H](CCN4CCc5ccc(S(C)(=O)=O)cc5CC4)CC3)c2)o1", "measured on": "D(2) dopamine receptor (Homo sapiens, UniProt P14416)", "pKi": 6.20}

###

- measured on: D(2) dopamine receptor (Homo sapiens)
- experimental protocol: Binding affinity against human Dopamine receptor D2 expressed in CHO cells by using [125I]iodosulpiride as radioligand
pKi: −log10 of the molar value.
Measured pKi accompanies every entry in the list below.

{"smiles notation": "CS(=O)(=O)c1ccc2c(c1)CCN(CC[C@H]1CC[C@H](NC(=O)/C=C/c3c(F)cccc3F)CC1)CC2", "pKi": 6.40}
{"smiles notation": "CS(=O)(=O)c1ccc2c(c1)CCN(CC[C@H]1CC[C@H](NC(=O)/C=C/c3ccc(C#N)cc3)CC1)CC2", "pKi": 6.90}
{"smiles notation": "CS(=O)(=O)Oc1ccc2c(c1)CCN(CC[C@H]1CC[C@H](NC(=O)c3cccc4ncccc34)CC1)CC2", "pKi": 6.70}
{"smiles notation": "CS(=O)(=O)Oc1ccc2c(c1)CCN(CC[C@H]1CC[C@H](NC(=O)c3cccc4ccccc34)CC1)CC2", "pKi": 6.50}
{"smiles notation": "CS(=O)(=O)c1ccc2c(c1)CCN(CC[C@H]1CC[C@H](NC(=O)/C=C/c3cc(F)cc(F)c3)CC1)CC2", "pKi": 6.60}
{"smiles notation": "Cc1cc(C(=O)N[C@H]2CC[C@H](CCN3CCc4ccc(OS(C)(=O)=O)cc4CC3)CC2)c2ccccc2n1", "pKi": 6.20}
{"smiles notation": "COc1ccc(/C=C/C(=O)N[C@H]2CC[C@H](CCN3CCc4ccc(OS(C)(=O)=O)cc4CC3)CC2)cc1", "pKi": 7.50}
{"smiles notation": "Cc1ccc2c(C(=O)N[C@H]3CC[C@H](CCN4CCc5ccc(OS(C)(=O)=O)cc5CC4)CC3)cccc2n1", "pKi": 6.70}
{"smiles notation": "Cc1ncc(-c2cccc(C(=O)N[C@H]3CC[C@H](CCN4CCc5ccc(OS(C)(=O)=O)cc5CC4)CC3)c2)o1", "pKi": 6.70}
{"smiles notation": "CS(=O)(=O)c1ccc2c(c1)CCN(CC[C@H]1CC[C@H](NC(=O)/C=C/c3cccc(F)c3)CC1)CC2", "pKi": 6.90}
{"smiles notation": "CS(=O)(=O)Oc1ccc2c(c1)CCN(CC[C@H]1CC[C@H](NC(=O)c3cccc(-n4cccc4)c3)CC1)CC2", "pKi": 6.60}
{"smiles notation": "Cc1cc(-c2cccc(C(=O)N[C@H]3CC[C@H](CCN4CCc5ccc(S(C)(=O)=O)cc5CC4)CC3)c2)on1", "pKi": 6.30}
{"smiles notation": "Cc1nc(-c2cccc(C(=O)N[C@H]3CC[C@H](CCN4CCc5ccc(OS(C)(=O)=O)cc5CC4)CC3)c2)no1", "pKi": 6.70}
